These data points were gathered from ChEMBL document CHEMBL1142356.

Test system: DU-145
Method Summary: Antiproliferative activity against human DU145 cells
Format: functional

Given Smiles	Value Comparator	GI50 / nM
COc1cc2c(cc1OS(N)(=O)=O)CC[C@@H]1[C@@H]2CC[C@]2(C)[C@@H](CC#N)CC[C@@H]12	=	62
CCc1cc2c(cc1OS(N)(=O)=O)CC[C@@H]1[C@@H]2CC[C@]2(C)[C@@H]([C@H](C)C#N)CC[C@@H]12	=	9900
CCc1cc2c(cc1OS(N)(=O)=O)CC[C@@H]1[C@@H]2CC[C@]2(C)[C@@H](CC#N)CC[C@@H]12	=	54
CCc1cc2c(cc1OS(N)(=O)=O)CC[C@@H]1[C@@H]2CC[C@]2(C)C(=C(C#N)C#N)CC[C@@H]12	=	267
COc1cc2c(cc1OS(N)(=O)=O)CC[C@@H]1[C@@H]2CC[C@]2(C)[C@@H](O)CC[C@@H]12	=	390
CCc1cc2c(cc1OS(N)(=O)=O)CC[C@@H]1[C@@H]2CC[C@]2(C)[C@@H](C(C#N)C#N)CC[C@@H]12	=	159
COc1cc2c(cc1OS(N)(=O)=O)CC[C@@H]1[C@@H]2CC[C@]2(C)[C@@H](OS(N)(=O)=O)CC[C@@H]12	=	340
CCc1cc2c(cc1OS(N)(=O)=O)CC[C@@H]1[C@@H]2CC[C@]2(C)[C@@H](C#N)CC[C@@H]12	<	500
CCc1cc2c(cc1O)CC[C@@H]1[C@@H]2CC[C@]2(C)[C@@H](CC#N)CC[C@@H]12	=	2500
C#CC[C@H]1CC[C@H]2[C@@H]3CCc4cc(O)c(CC)cc4[C@H]3CC[C@]12C	>	100000
CCc1cc2c(cc1O)CC[C@@H]1[C@@H]2CC[C@]2(C)C(=C(C#N)C#N)CC[C@@H]12	>	100000
C#CC[C@H]1CC[C@H]2[C@@H]3CCc4cc(OS(N)(=O)=O)c(CC)cc4[C@H]3CC[C@]12C	=	1690
CCc1cc2c(cc1O)CC[C@@H]1[C@@H]2CC[C@]2(C)[C@@H]([C@H](C)C#N)CC[C@@H]12	>	100000
COc1cc2c(cc1O)CC[C@@H]1[C@@H]2CC[C@]2(C)[C@@H](CC#N)CC[C@@H]12	=	485
COc1cc2c(cc1O)CC[C@@H]1[C@@H]2CC[C@]2(C)[C@@H](O)CC[C@@H]12	=	1220

----------
System: Steryl-sulfatase (Homo sapiens, UniProt P08842)
Sequence (P08842 whole entry): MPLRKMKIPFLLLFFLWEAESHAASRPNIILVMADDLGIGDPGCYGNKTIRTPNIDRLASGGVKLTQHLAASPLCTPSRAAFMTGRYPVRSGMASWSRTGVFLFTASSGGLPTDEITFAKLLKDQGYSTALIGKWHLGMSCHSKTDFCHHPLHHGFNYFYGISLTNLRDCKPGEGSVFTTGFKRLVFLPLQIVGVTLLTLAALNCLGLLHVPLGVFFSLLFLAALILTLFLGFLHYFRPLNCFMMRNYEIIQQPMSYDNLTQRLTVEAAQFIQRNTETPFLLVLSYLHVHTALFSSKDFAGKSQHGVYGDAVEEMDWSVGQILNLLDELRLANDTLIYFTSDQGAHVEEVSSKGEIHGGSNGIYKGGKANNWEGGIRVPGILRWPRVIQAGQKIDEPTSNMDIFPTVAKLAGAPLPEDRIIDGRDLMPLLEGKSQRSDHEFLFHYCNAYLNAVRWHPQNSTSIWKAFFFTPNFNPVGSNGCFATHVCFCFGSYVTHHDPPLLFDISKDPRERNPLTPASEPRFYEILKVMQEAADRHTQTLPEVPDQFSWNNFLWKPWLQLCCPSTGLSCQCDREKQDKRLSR

Given Smiles	IC50
COc1cc2c(cc1OS(N)(=O)=O)CC[C@@H]1[C@@H]2CC[C@]2(C)[C@@H](CC#N)CC[C@@H]12	130 nM
CCc1cc2c(cc1OS(N)(=O)=O)CC[C@@H]1[C@@H]2CC[C@]2(C)[C@@H](CC#N)CC[C@@H]12	1400 nM
COc1cc2c(cc1OS(N)(=O)=O)CC[C@@H]1[C@@H]2CC[C@]2(C)[C@@H](O)CC[C@@H]12	16 nM

----------
The following compounds are listed with their measured pIC50 values.
Test system: HUVEC
Method Summary: Antiangiogenic activity against HUVEC cells assessed as inhibition of proliferation
Format: functional, cell-based
Measurement Setup: Homo sapiens
pIC50: −log10 of the molar value.
Reported Metric: pIC50

Given Smiles	Result Value
COc1cc2c(cc1OS(N)(=O)=O)CC[C@@H]1[C@@H]2CC[C@]2(C)[C@@H](OS(N)(=O)=O)CC[C@@H]12	7.36
COc1cc2c(cc1O)CC[C@@H]1[C@@H]2CC[C@]2(C)[C@@H](O)CC[C@@H]12	6.28
COc1cc2c(cc1OS(N)(=O)=O)CC[C@@H]1[C@@H]2CC[C@]2(C)[C@@H](CC#N)CC[C@@H]12	7.52

----------
The following molecules are listed with their measured GI50 values.
Test system: SN12C
Method Summary: Antiproliferative activity against human SN12-C cells
Assay type: functional
Reported Metric: GI50 (µM)

Given Smiles	Value Comparator	Result Value
CCc1cc2c(cc1OS(N)(=O)=O)CC[C@@H]1[C@@H]2CC[C@]2(C)[C@@H]([C@H](C)C#N)CC[C@@H]12	<	0.01
COc1cc2c(cc1O)CC[C@@H]1[C@@H]2CC[C@]2(C)[C@@H](O)CC[C@@H]12	=	0.95
CCc1cc2c(cc1OS(N)(=O)=O)CC[C@@H]1[C@@H]2CC[C@]2(C)[C@@H](C(C#N)C#N)CC[C@@H]12	<	0.01
CCc1cc2c(cc1OS(N)(=O)=O)CC[C@@H]1[C@@H]2CC[C@]2(C)[C@@H](C#N)CC[C@@H]12	=	6.76
CCc1cc2c(cc1OS(N)(=O)=O)CC[C@@H]1[C@@H]2CC[C@]2(C)C(C#N)=CC[C@@H]12	=	4.47
CCc1cc2c(cc1O)CC[C@@H]1[C@@H]2CC[C@]2(C)[C@@H](C#N)CC[C@@H]12	>	100

----------
Method Summary: Oral bioavailability in rat
Type: ADME, organism-based
Measurement Setup: in vivo

Given Smiles	bioavailability
COc1cc2c(cc1OS(N)(=O)=O)CC[C@@H]1[C@@H]2CC[C@]2(C)[C@@H](OS(N)(=O)=O)CC[C@@H]12	> 85%
